Target: T1, human CD24 on cells (human, UniProt P25063 27-59)
T1 chain (looked up): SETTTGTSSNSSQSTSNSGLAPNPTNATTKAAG
Experiment: cell-based or functional assay
measurement type: EC50 of Phagocytosis assay, IgG4, Kappa; OVCAR3 (µg/mL)
Report the value in µg/mL with no unit label.

Can you share its EC50 of Phagocytosis assay, IgG4, Kappa; OVCAR3? I mean this binder: 67-H2E7, IgG4, Kappa (antibody, V domains shown) VH: EVQLQQSGPELVKPGASVKISCKASGYEFTGYHMNWVKQSPEKSLEWIGEINPITSDKTFNQKFKAKATLTVDRSSTTAYMHLKSLTSEDSAVYYCARRDYDTSLDYWGQGTTLTVSS VL: DVQITQSPSYLAASPGETITIYCRASKSISKYLAWYQEKPEKTNRLLIYAGSTLQSGIPSRFRGSGSGKDFTLTVSGLEPEDFAMYYCQQHNEYPLTFGAGTKLDLK
0.71

Now consider 62-F7E9, IgG4, Kappa (antibody, V domains shown) VH: QVQLQQPGAELVKPGASVKLSCKASGYTSTSYWLHWVKQRPGRGLEWIGRIDPNSGETKFNEKFKSQATLTVDKPSSTAYMQLNSLTSEDSAVYYCALYYYGSILFDYWGQGTTLTVSS VL: ENVLTQSPAIMSASPGEKVTMTCRTSSIISSGFLHWYQQKSGASPKLWIYSTSNLASGVPARFSGSGSGTSYSLTISSVEAEDAATYYCQQYSGHPLTFGAGTKLELK and answer again.
1.41

Now consider 90-D11B6, IgG4, Kappa (antibody, V domains shown) VH: EVQLQQSGPELVKPGASVRISCKASGYSFTGYYMNWVKQSPEKNLEWIGEINPITGGSTYNQKFVAKATLTVDRSSSTAYMQLKSLTSEDSAVYYCTRRDYDTSLDYWGQGTTLTVSS VL: DVQITQSPSYLAASPGETITINCRASKSISKYLAWYQEKPGKTIKLLIYAGSTLQSGIPSRFSGSGYGTDFTLTISSLEPEDFAMYYCQQHNEYPLTFGAGTKLELK and answer again.
0.86
